This collection of values is drawn from ChEMBL document CHEMBL1681653.

- System: Lysosomal acid glucosylceramidase (Homo sapiens, UniProt P04062)
- Sequence (P04062 whole entry): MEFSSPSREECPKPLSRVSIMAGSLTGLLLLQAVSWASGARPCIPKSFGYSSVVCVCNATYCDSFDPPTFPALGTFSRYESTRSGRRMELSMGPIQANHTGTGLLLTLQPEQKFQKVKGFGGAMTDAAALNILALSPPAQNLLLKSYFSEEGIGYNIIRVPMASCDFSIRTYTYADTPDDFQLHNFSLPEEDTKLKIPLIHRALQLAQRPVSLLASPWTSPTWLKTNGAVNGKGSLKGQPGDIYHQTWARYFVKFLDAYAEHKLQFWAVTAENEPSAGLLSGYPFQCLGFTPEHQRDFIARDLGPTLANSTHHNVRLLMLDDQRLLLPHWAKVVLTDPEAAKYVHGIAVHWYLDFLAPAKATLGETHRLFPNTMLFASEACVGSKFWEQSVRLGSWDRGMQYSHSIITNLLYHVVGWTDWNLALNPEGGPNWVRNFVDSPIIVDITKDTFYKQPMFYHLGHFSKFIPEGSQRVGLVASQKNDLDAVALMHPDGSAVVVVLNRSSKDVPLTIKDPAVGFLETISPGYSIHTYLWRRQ
pIC50: −log10 of the molar value.

Molecule Smiles: OC[C@@H]1[C@@H](O)[C@H](O)[C@]2(O)CC[C@H]1N2
System: Lysosomal acid glucosylceramidase (Homo sapiens, UniProt P04062)
pIC50: 6.40
--
Molecule Smiles: CCCCCCCCCN1[C@@H]2CC[C@@]1(O)[C@@H](O)[C@H](O)[C@H]2CO
System: Lysosomal acid glucosylceramidase (Homo sapiens, UniProt P04062)
pIC50: 4.22
--
Molecule Smiles: O[C@@H]1[C@@H](O)[C@H](O)[C@]2(O)CC[C@H]1N2
System: Lysosomal acid glucosylceramidase (Homo sapiens, UniProt P04062)
pIC50: 6.00
--
Molecule Smiles: CCCCN1[C@@H]2CC[C@@]1(O)[C@@H](O)[C@H](O)[C@H]2CO
System: Lysosomal acid glucosylceramidase (Homo sapiens, UniProt P04062)
pIC50: 4.00
